# SYSTEM_UNDER_TEST: UniProt Q8IJN7
# Sequence (Q8IJN7 whole entry): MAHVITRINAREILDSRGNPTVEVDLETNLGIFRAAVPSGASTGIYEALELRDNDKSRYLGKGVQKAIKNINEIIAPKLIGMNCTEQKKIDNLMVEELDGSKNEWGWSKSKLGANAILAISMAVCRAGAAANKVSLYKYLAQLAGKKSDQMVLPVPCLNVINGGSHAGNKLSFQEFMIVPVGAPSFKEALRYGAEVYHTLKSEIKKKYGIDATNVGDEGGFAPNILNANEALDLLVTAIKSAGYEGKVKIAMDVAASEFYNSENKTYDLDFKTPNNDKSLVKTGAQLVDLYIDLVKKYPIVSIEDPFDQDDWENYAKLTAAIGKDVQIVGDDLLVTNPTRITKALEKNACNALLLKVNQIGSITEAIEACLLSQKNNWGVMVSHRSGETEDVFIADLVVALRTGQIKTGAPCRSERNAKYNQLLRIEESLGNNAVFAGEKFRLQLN
# ASSAY_PROTOCOL: IC50 for competition of protein binding to Kinobeads;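 note: native unpurified kinases from lysate captured on beads bearing immobilized kinase inhibitors, with bead-bound kinases quantified by mass spectrometry across compound doses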
# PARTICULARS: assay detail: Kinobeads competition in P. falciparum blood-stage lysate
ASSAY_METRIC: IC50

O=c1[nH]c2ccc(Cl)cc2c(NC2CN3CCC2CC3)c1-c1nc2ccccc2[nH]1 (stereo unspecified) [CHIR-124]: > 20 µM

###

# SYSTEM_UNDER_TEST: UniProt Q8I5B3
# ASSAY_PROTOCOL: IC50 for competition of protein binding to Kinobeads
# PARTICULARS: assay detail: Kinobeads competition in P. falciparum blood-stage lysate
ASSAY_METRIC: IC50

O=c1[nH]c2ccc(Cl)cc2c(NC2CN3CCC2CC3)c1-c1nc2ccccc2[nH]1 (stereo unspecified) [CHIR-124]: > 20 µM
